Read-out: Ezrin (EZR), EZR (gene 7430)
Test: LTEA_HepaRG_EZR: Life Technologies and Expression Analysis (LTEA) Assay for Ezrin (EZR) using HepaRG (AID 2283491)
Settings: mRNA level, 48 h; actives raise or lower the signal
Active and inactive are the calls of the source. How the source made its calls: active means hit-call score of the fitted dose curve at least 0.9, where 1 is the maximum; inactive means score below 0.9.
Labels: true (1) = active, false (0) = inactive

givenSmiles	assignedLabel
CCCCc1oc2ccccc2c1C(=O)c1cc(I)c(OCCN(CC)CC)c(I)c1	true (1)
CC(=O)Nc1ccc(O)cc1	false (0)
Cc1[nH]nc2c1N=C(c1ccccc1Cl)c1cc([N+](=O)[O-])ccc1N2	true (1)
O=C(c1ccccc1)c1ccccc1	false (0)
OCC(CO)(CBr)CBr	false (0)
CCCCCCCCCCCCOS(=O)(=O)O	false (0)

* * *

Read-out: Monokine induced gamma interferon (MIG), CXCL9 (gene 4283)
Experiment: BSK_hDFCGF_MIG: BioMAP Diversity Plus: hDFCGF Assay for Monokine induced gamma interferon (MIG) Biomarker Activity (AID 2283063)
Conditions: primary human foreskin fibroblasts; actives raise or lower the signal
The source made the active and inactive calls. How the source made its calls: active means hit-call score of the fitted dose curve at least 0.9, where 1 is the maximum; inactive means score below 0.9.
Outcome codes: YES = active, NO = inactive

compound	assignedLabel
C[C@]12CC[C@@H]3c4ccc(O)cc4CC[C@H]3[C@@H]1C[C@@H](O)[C@@H]2O	NO
CC[N+](CC)(CC)Cc1ccccc1	NO
Cc1[nH]nc2c1N=C(c1ccccc1Cl)c1cc([N+](=O)[O-])ccc1N2	YES
O=C(O)CCC(F)(F)C(F)(F)C(F)(F)C(F)(F)C(F)(F)F	NO
CC(=O)Nc1ccc(O)cc1	NO
CCCCCCCCCCCCCCCCCC[N+](C)(C)Cc1ccccc1	YES
COC1=CC(=O)C[C@@H](C)[C@]12Oc1c(Cl)c(OC)cc(OC)c1C2=O	NO
CCCCC(CC)C(=O)O (stereo not given)	NO
CCCCCCCCCCCCCCC	NO
Oc1cc2ccccc2cc1O	NO
OCC(CO)(CBr)CBr	NO
N=C(N)c1ccc(OCCCCCOc2ccc(C(=N)N)cc2)cc1	NO
C=COC(=O)C(C)(C)CCCCCC	YES
CCCCCc1ccc(O)cc1	YES
O=C(O)CCC(F)(F)C(F)(F)C(F)(F)C(F)(F)C(F)(F)C(F)(F)F	NO
CCCCC(CC)C(=O)OCCOCCOCCOCCOC(=O)C(CC)CCCC (stereo not given)	NO
Oc1c(Cl)cc(Cl)cc1Sc1cc(Cl)cc(Cl)c1O	YES
O=C(CCCN1CCC(O)(c2ccc(Cl)cc2)CC1)c1ccc(F)cc1	NO
C=CC(=O)OCCC(F)(F)C(F)(F)C(F)(F)C(F)(F)C(F)(F)C(F)(F)C(F)(F)C(F)(F)F	NO
Cc1ccc(C(=O)c2ccccc2)cc1	YES
O=C(c1ccccc1)c1ccccc1	NO
CN(CCO)S(=O)(=O)C(F)(F)C(F)(F)C(F)(F)C(F)(F)C(F)(F)C(F)(F)C(F)(F)C(F)(F)F	NO
C=CC(C)(CCC=C(C)C)OC(C)=O (stereo not given)	NO
O=C1OC2(c3ccccc31)c1cc(I)c(O)c(I)c1Oc1c2cc(I)c(O)c1I	YES
CCOC(=O)CN[C@@H](C(=O)N1CC[C@H]1C(=O)NCc1ccc(/C(N)=N/O)cc1)C1CCCCC1	NO

* * *

Read-out: Intercellular Adhesion Molecule 1 (ICAM1), ICAM1 (gene 3383)
Assay: BSK_3C_ICAM1: BioMAP Diversity Plus: 3C Assay for Intercellular Adhesion Molecule 1 (ICAM1) Biomarker Activity (AID 2283003)
Details: primary human endothelial cells (HUVEC); actives raise or lower the signal
Activity calls are given as the source filed them. The calls were made as follows: active = hit-call score of the fitted dose curve at least 0.9, where 1 is the maximum; inactive = score below 0.9.
Labels: active, inactive

compound	assignedLabel
COc1cc(OC)nc(NC(=O)NS(=O)(=O)Nc2ccccc2C(=O)N(C)C)n1	inactive
Cc1ccc(C(=O)c2ccccc2)cc1	inactive
NC(=NCCCCCCN=C(N)/N=C(\N)Nc1ccc(Cl)cc1)/N=C(\N)Nc1ccc(Cl)cc1	active
O=C(O)CCC(F)(F)C(F)(F)C(F)(F)C(F)(F)C(F)(F)F	inactive
CN(C)CCOC(c1ccccc1)c1ccccc1	inactive
O=C(NCc1ncc(C(F)(F)F)cc1Cl)c1c(Cl)cccc1Cl	inactive
O=C(c1ccccc1)c1ccccc1	inactive
Cc1ccc(N=Nc2c(O)ccc3ccccc23)c(C)c1	inactive
O=C1NS(=O)(=O)c2ccccc21	inactive
OCC(CO)(CBr)CBr	inactive
CC(=O)Nc1ccc(O)cc1	inactive
O=P(O)(O)CCC(F)(F)C(F)(F)C(F)(F)C(F)(F)C(F)(F)C(F)(F)F	inactive
CN(CCO)S(=O)(=O)C(F)(F)C(F)(F)C(F)(F)C(F)(F)C(F)(F)C(F)(F)C(F)(F)C(F)(F)F	inactive
Clc1ccc(Nc2nnc(Cc3ccncc3)c3ccccc23)cc1	inactive
C=COC(=O)C(C)(C)CCCCCC	active
COc1cccc(O)c1	inactive
OCC(F)(F)C(F)(F)C(F)(F)C(F)(F)C(F)(F)C(F)(F)C(F)(F)C(F)(F)C(F)(F)C(F)(F)C(F)(F)F	inactive
C=CC(=O)OCCC(F)(F)C(F)(F)C(F)(F)C(F)(F)C(F)(F)C(F)(F)C(F)(F)C(F)(F)F	inactive
N=C(N)c1ccc(OCCCCCOc2ccc(C(=N)N)cc2)cc1	inactive
C=CC(C)(CCC=C(C)C)OC(C)=O (centres undefined)	inactive
O=P(O)(O)CCC(F)(F)C(F)(F)C(F)(F)C(F)(F)C(F)(F)C(F)(F)C(F)(F)C(F)(F)F	inactive
CCCCC(CC)C(=O)O (centres undefined)	inactive
O=C(CCCN1CCC(O)(c2ccc(Cl)cc2)CC1)c1ccc(F)cc1	inactive
CCCCC(CC)C(=O)OCCOCCOCCOCCOC(=O)C(CC)CCCC (centres undefined)	inactive

* * *

Read-out: Apolipoprotein A-V (APOA5) gene, APOA5 (gene 116519)
Assay: LTEA_HepaRG_APOA5: Life Technologies and Expression Analysis (LTEA) Assay for Apolipoprotein A-V (APOA5) gene using HepaRG (AID 2283474)
Conditions: mRNA level, 48 h; actives raise or lower the signal
Active and inactive are the calls of the source. The calls were made as follows: active = hit-call score of the fitted dose curve at least 0.9, where 1 is the maximum; inactive = score below 0.9.
Outcomes: active, inactive

compound	assignedLabel
CN(Cc1cnc2nc(N)nc(N)c2n1)c1ccc(C(=O)N[C@@H](CCC(=O)O)C(=O)O)cc1	inactive
CC(=O)Nc1ccc(O)cc1	inactive
OCC(CO)(CBr)CBr	inactive
CCCCCCCCCCCCCCC	inactive
O=C(CCCN1CCC(O)(c2ccc(Cl)cc2)CC1)c1ccc(F)cc1	inactive
N=C(N)c1ccc(OCCCCCOc2ccc(C(=N)N)cc2)cc1	active
CCC(C)c1ccccc1O (configuration not stated)	inactive
CCCCc1oc2ccccc2c1C(=O)c1cc(I)c(OCCN(CC)CC)c(I)c1	active
CCCCCCCCCCCCOS(=O)(=O)O	inactive
CCCCC=O	inactive
CN(C)CCOC(c1ccccc1)c1ccccc1	inactive
CS(=O)(=O)c1ccc([C@@H](CC2CCCC2)C(=O)Nc2cnccn2)cc1Cl	active

* * *

Test: ATG_EGR_CIS: Attagene CIS-FACTORIAL HepG2 Assay for human Early Growth Response 1 (EGR1) (AID 2282938)
Conditions: HepG2 Attagene CIS-FACTORIAL EGR reporter mRNA; actives raise or lower the signal
Active and inactive are the calls of the source. The calls were made as follows: active = hit-call score of the fitted dose curve at least 0.9, where 1 is the maximum; inactive = score below 0.9.
Outcomes: label 1 for active, label 0 for inactive

givenSmiles	assignedLabel
CC(=O)Nc1ccc(S(N)(=O)=O)cc1	label 0
CCOC(=O)c1nc(C(Cl)(Cl)Cl)n(-c2ccc(Cl)cc2Cl)n1	label 1
CCOC(=O)CN[C@@H](C(=O)N1CC[C@H]1C(=O)NCc1ccc(/C(N)=N/O)cc1)C1CCCCC1	label 0
O=C(CC(=O)C(F)(F)C(F)(F)C(F)(F)F)c1cccs1	label 0
Cc1cc(Cc2cc(C)cc(C(C)(C)C)c2O)c(O)c(C(C)(C)C)c1	label 1

* * *

Target: Nucleoli Translocation, AR (gene 367) (UniProt P10275)
Sequence (P10275 whole entry, looked up): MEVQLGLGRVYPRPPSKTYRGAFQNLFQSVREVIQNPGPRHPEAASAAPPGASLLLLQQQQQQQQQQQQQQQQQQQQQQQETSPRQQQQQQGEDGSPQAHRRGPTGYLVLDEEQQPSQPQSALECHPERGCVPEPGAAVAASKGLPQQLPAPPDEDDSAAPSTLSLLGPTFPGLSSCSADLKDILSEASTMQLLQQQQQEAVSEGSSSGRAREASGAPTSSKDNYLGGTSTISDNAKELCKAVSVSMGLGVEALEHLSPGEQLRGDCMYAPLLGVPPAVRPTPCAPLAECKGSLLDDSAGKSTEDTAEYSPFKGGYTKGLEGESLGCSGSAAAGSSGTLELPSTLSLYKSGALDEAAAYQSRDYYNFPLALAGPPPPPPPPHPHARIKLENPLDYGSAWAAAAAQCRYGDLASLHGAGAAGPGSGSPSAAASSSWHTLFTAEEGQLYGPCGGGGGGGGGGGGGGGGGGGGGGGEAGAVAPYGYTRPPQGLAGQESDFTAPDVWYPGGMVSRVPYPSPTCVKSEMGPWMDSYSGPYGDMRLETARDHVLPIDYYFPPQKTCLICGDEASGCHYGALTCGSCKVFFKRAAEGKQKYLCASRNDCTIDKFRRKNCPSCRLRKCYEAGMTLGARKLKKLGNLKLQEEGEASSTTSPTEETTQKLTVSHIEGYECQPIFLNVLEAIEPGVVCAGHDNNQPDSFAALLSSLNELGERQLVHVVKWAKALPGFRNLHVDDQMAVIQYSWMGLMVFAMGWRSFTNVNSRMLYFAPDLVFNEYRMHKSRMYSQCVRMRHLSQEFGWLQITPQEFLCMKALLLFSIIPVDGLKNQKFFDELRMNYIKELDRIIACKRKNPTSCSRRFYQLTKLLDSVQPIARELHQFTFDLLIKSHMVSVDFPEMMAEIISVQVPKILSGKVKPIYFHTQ
Test: UPITT_HCI_U2OS_AR_TIF2_Nucleoli_Agonist: University of Pittsburgh U2OS Androgen Receptor-Transcriptional Intermediary Factor 2 (AR-TIF2) Agonism High Content Imaging Assay for Nucleoli Translocation (AID 2283998)
From the text: UPITT_AR_TIF2_PPIB is a cell-based, high-content imaging assay that uses U2OS, a human osteosarcoma cell line, expressing a human androgen receptor fused to red fluorescent protein and the coactivator TIF2 fused to green fluorescent protein. UPITT_HCI_U2OS_AR_TIF2_Nucleoli_Agonist is one of four assay components measured from the UPITT_AR_TIF2_PPIB assay. […]
Inconclusive results are not listed. Activity calls are given as the source filed them. How the source made its calls: active means hit-call score of the fitted dose curve at least 0.9, where 1 is the maximum; inconclusive means response in the unintended direction; inactive means score below 0.9.
Possible outcomes: active, inactive

givenSmiles	assignedLabel
CCCCCc1ccc(O)cc1	active
CCCCCCc1ccc(N)cc1	inactive
NC(=NCCCCCCN=C(N)/N=C(\N)Nc1ccc(Cl)cc1)/N=C(\N)Nc1ccc(Cl)cc1	inactive
O=C(NCc1ncc(C(F)(F)F)cc1Cl)c1c(Cl)cccc1Cl	inactive
CCCCCCC(C)(C)C(=O)O	inactive
